Data origin: ChEMBL document CHEMBL3886319

For reference, IC50 measured on Interleukin-1 receptor-associated kinase 4 (Homo sapiens, UniProt Q9NWZ3):

* Cc1ccc(-n2nc(C3CCCN(Cc4ccc(S(C)(=O)=O)cc4)C3)cc2NC(=O)c2cnn3cccnc23)cc1 (stereo not drawn) | < 100 nM

// query Which IC50 is reported for this compound? COc1ccc(CN2CCC(c3cc(NC(=O)c4cnn5cccnc45)n(-c4ccc(C)cc4)n3)CC2)cn1
// result < 1000 nM

// query Entry to check: Cc1ccc(-n2nc(C3CCCN(Cc4cn[nH]c4)C3)cc2NC(=O)c2cnn3cccnc23)cc1 (stereo not drawn)
// result < 1000 nM
